Biological target: (Homo sapiens)
Construct: human IGF1R kinase domain residues M954-C1367; made in house; host or cells: baculovirus expression (insect cells)
Assay: IGF1R kinase assay (LCCA), IGF 0P
Format: biochemical
Conditions: IGF1R kinase LCCA assay
Result type: IC50

Molecule	IC50
Clc1ccc(-c2ncc(CNc3ncc(Br)c(Nc4cc(C5CC5)[nH]n4)n3)s2)cc1	> 5 µM
Brc1cnc(Nc2ccc(N3CCOCC3)cc2)nc1Nc1cc(-c2ccco2)[nH]n1	0.05 to 0.5 µM
Fc1cnc(Nc2ccccc2Cl)nc1Nc1cc(C2CC2)[nH]n1	0.05 to 0.5 µM
CC(C)c1cc(Nc2cc(N3CCN(C)CC3)nc(NCc3cc(-c4ccccc4)no3)n2)n[nH]1	0.05 to 0.5 µM
c1ccc(CN2CCc3c(nc(NCc4cc(-c5ccccc5)no4)nc3Nc3cc(C4CC4)[nH]n3)C2)cc1	0.5 to 5 µM

Notebook: CN(C)CCCNc1ncc(Br)c(Nc2cc(C3CC3)n[nH]2)n1 , IC50 read as > 5 µM

Notebook: FC(F)(F)Oc1cccc(Nc2ncc(Br)c(Nc3cc(C4CC4)n[nH]3)n2)c1 , IC50 read as > 5 µM

Notebook: Cc1cc(Nc2cc(C3CC3)[nH]n2)nc(NC(c2ccccc2)c2nc(-c3ccccc3)co2)n1 (stereo not drawn) , IC50 read as 0.5 to 5 µM

###

Molecular target: (Homo sapiens, UniProt P08069)
Construct: human IGF1R kinase domain residues M954-C1367; made in house; host or cells: baculovirus expression (insect cells)
Sequence (P08069 954-1367): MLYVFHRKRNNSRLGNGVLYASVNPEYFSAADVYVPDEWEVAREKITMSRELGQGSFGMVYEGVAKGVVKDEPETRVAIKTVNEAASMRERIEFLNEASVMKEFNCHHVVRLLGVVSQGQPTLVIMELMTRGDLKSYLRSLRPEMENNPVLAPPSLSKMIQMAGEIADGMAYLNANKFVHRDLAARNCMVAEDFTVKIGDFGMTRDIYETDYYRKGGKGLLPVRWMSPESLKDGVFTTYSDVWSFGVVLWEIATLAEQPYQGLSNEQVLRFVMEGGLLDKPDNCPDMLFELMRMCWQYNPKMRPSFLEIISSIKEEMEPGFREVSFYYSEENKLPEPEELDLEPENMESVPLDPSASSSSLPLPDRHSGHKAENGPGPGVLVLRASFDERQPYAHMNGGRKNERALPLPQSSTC
Assay: IGF1R kinase assay (LCCA), IGF 0P
Assay type: biochemical
Details: IGF1R kinase LCCA assay
Result type: IC50

Molecule	Experimental result
CN1CCN(CCNc2cc(Nc3cc(C4CC4)[nH]n3)nc(NCc3cc(-c4ccccc4)no3)n2)CC1	50 to 500 nM

Notebook: c1ccc(-c2cc(CNc3nc(CN4CCOCC4)cc(Nc4cc(C5CC5)[nH]n4)n3)on2)cc1 , IC50 read as 50 to 500 nM

Notebook: CC(C)(C)OC(=O)N1CC[C@H](NC(=O)c2cccc(Nc3ncc(Br)c(Nc4cc(C5CC5)n[nH]4)n3)c2)C1 , IC50 read as 500 to 5000 nM

Notebook: CCN(CC)CCCNC(=O)c1cc(Nc2cc(C3CC3)[nH]n2)nc(NCc2cc(-c3ccccc3)no2)n1 , IC50 read as 50 to 500 nM

Notebook: c1cc(Nc2cc(C3CCCC3)n[nH]2)nc(Nc2ccc(N3CCOCC3)cc2)n1 , IC50 read as 500 to 5000 nM

Notebook: CN1CCN(C(=O)Cc2ccc(Nc3ncc(Br)c(Nc4cc(C5CC5)n[nH]4)n3)cc2)CC1 , IC50 read as 500 to 5000 nM

Notebook: Clc1cc(Cl)cc(Nc2ncc(Br)c(Nc3cc(C4CC4)n[nH]3)n2)c1 , IC50 read as > 5000 nM

Notebook: Clc1cccc(CCNc2ncc(Br)c(Nc3cc(C4CC4)n[nH]3)n2)c1 , IC50 read as > 5000 nM

Notebook: Nc1ncnc2c1c(-c1ccc(NC(=O)C3(C(=O)Nc4ccc(F)cc4)CC3)cc1)cn2CC1CC2CNCC2C1 (centres unmarked) , IC50 read as > 5000 nM

Notebook: Nc1ncnc2c1c(-c1ccc(NC(=O)C3(C(=O)Nc4ccc(F)cc4)CC3)cc1)cn2C1CC(CN2CCCC2)C1 (centres unmarked) , IC50 read as 500 to 5000 nM

Notebook: Cc1cc(Nc2cc(C3CC3)n[nH]2)nc(Nc2cc(Br)cc(C(F)(F)F)c2)n1 , IC50 read as > 5000 nM

Notebook: Cc1cc(Nc2cc(C3CC3)[nH]n2)nc(NCc2cc(C3CCCCC3)no2)n1 , IC50 read as 50 to 500 nM

Notebook: Brc1cnc(Nc2ccncc2)nc1Nc1cc(C2CC2)[nH]n1 , IC50 read as > 5000 nM

Notebook: COc1cc(Nc2nccc(Nc3cc(C4CC4)n[nH]3)n2)cc(OC)c1 , IC50 read as 500 to 5000 nM

Notebook: FC(F)(F)c1cccc(CNc2ncc(Br)c(Nc3cc(C4CC4)n[nH]3)n2)c1 , IC50 read as 500 to 5000 nM

Notebook: Brc1cnc(NCCc2cccs2)nc1Nc1cc(C2CC2)n[nH]1 , IC50 read as 500 to 5000 nM

Notebook: CC(C)(C)OC(=O)N1CC[C@@H](NC(=O)c2ccc(Nc3ncc(Br)c(Nc4cc(C5CC5)n[nH]4)n3)cc2)C1 , IC50 read as 500 to 5000 nM

Notebook: CN(C)c1cc(Nc2cc(C3CC3)[nH]n2)nc(NCc2cc(-c3ccccc3)no2)n1 , IC50 read as 50 to 500 nM
